measurement target: T1, Dimeric monkey CD48-mFc (monkey)
T1 construct: Soluble monkey CD48 with a C-terminal Fc fusion [mFc]; the whole entry is the construct
T1 chain: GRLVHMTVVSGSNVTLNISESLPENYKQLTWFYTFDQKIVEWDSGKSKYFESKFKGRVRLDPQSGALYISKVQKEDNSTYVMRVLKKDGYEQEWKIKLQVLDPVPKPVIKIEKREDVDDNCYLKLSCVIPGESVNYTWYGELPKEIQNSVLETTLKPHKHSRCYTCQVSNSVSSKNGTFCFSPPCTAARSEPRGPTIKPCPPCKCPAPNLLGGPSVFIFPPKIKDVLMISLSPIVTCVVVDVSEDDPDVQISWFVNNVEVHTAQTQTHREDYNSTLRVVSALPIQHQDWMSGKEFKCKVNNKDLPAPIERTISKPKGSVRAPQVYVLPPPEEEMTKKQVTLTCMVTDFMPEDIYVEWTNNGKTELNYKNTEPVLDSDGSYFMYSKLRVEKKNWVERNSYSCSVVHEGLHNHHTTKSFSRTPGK
test: SPR (Biacore), antibody captured by anti-Fc, CD48 in solution, 37 C
readout label: Kd (nM)
Lab book: enter the figure in nM, no units written.

*Q* Answer with the recorded Kd for the binder listed here: H4H1772P (antibody, human IgG4, V domains shown, Human IgG4 Fc (H4H)) VH: EVQLVESGGGLVQPGGSLRLSCAASGFTFSSYWMSWVRQAPGKGLEWVANIMRDGSEKYYVDSVKGRFTISRDNAKNSLYLQMNSLRGEDTAVYYCARERGFYTNYGNWFDPWGQGTLVTVSS VL: DIVMTQSPLSLTVTPGESASISCRSSQSLLHSYGYNSLDWYLQKPGQSPQFLIYLVSNRASGVPDRFSGSGSGTDFTLKISRVEAEDVGVYYCMQVLQTPYTFGQGTKLEIK
*A* 0.0947
